Experiment: Ratio of the concentration levels determined for the adrenal medulla to the liver after 72 hr; [Adrenal Medulla] / [liver]
Type: ADME, tissue-based
Rule: Ratio of 400 or more gives yes (1); anything lower gives no (0).

Please review the following examples before continuing.
INSERT INTO assay_data (compound, category) VALUES
  ('N=C(N)NCc1cccc(I)c1 [IOBENGUANE]', 'yes (1)'),
  ('N=C(N)Nc1cccc(I)c1', 'no (0)'),
  ('CC(N=C(N)N)c1cccc(I)c1 (racemic)', 'yes (1)'),
  ('N=C(N)NCCc1ccc(I)cc1', 'no (0)'),
  ('N=C(N)NCCN1CCCCCCC1 [GUANETHIDINE]', 'no (0)');

Query: # check: Ratio of N=C(N)NCc1cc(I)cc(I)c1 is greater than or equal to 400
Reply: no (0)

Query: Hi, just wondering whether N=C(N)NCc1ccccc1 shows Ratio of 400 or higher.
Reply: yes (1)

Query: Please tell me: is the compound N=C(N)NCc1ccccc1I at or over 400 in terms of Ratio?
Reply: no (0)

---

Can you tell me Ratio for the items I'm about to list?
Test: Ratio of the concentration levels determined for the adrenal medulla to the liver after 72 hr; [Adrenal Medulla] / [liver]
Assay type: ADME, tissue-based
Numbers only.

Provide reported Ratio for each item, in the same order as listed.
1. N=C(N)NCCc1cccc(I)c1
2. N=C(N)NCc1ccc(I)c(I)c1
3. CC(N=C(N)N)c1cccc(I)c1 (stereo in doubt; 8b(+))
4. N=C(N)N [GUANIDINE]
5. N=C(N)NCc1ccc(I)cc1

Reply:
190
115
390
1.4
545

For each of the compounds below, state Ratio.
1. CC(N=C(N)N)c1ccc(I)cc1 (racemic)
2. CC(N=C(N)N)c1cccc(I)c1 (single isomer, unassigned; (-))

Reply:
[190, 300]
